# Test system: Spodoptera littoralis
# protocol details: Toxicity in Spodoptera littoralis neonatal larvae assessed as survival rate after 5 days
# Assay type: organism-based
# condition set: in vivo, 120 h
Mark each entry Y if its LC50 sits below 1 µmol/g, and N for all others.

CS/C=C/C(=O)N(C)/C=C/c1ccccc1; N
CSC(=O)N(C)CCc1ccccc1; Y
CS/C=C/C(=O)N(C)CCc1ccccc1; N
CNC(=O)/C=C/SC; N
CSC(=O)N(C)/C=C/c1ccccc1 [DEHYDRONIRANIN A]; N

# check: LC50 < 1 µmol/g for CSC(=O)N(C)C(=O)Cc1ccccc1
N

# check: LC50 < 1 µmol/g for CSC(=O)N(C)/C=C\c1ccccc1 [DEHYDRONIRANIN B]
Y

Data provenance is ChEMBL document CHEMBL1158289.
